target or test system: Sut1 (UniProt P53032)
Sequence: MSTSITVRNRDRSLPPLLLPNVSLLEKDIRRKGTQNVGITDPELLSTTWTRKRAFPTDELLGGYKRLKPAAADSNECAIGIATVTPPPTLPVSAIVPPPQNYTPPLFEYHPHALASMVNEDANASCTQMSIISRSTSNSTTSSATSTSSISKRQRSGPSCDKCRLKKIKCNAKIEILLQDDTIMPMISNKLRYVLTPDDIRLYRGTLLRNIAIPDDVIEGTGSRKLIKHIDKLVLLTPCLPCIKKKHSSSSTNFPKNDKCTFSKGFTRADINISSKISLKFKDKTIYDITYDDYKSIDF
method: PBM E-score (8-mer binding enrichment) (E-score (-0.5 to 0.5)); higher = stronger / more preferred TF binding
condition set: protein concentration: 200 nM; construct: GST-full length
In all, about 33,000 sequences were measured (“E-score (-0.5 to 0.5)”: median about -0.017, highest 2% from about 0.3 on). This is one part of a sample in which the highest values are shown more often than they occur.
Tick satisfied if PBM E-score is 0.0005 or greater. Tick not satisfied if PBM E-score is less than 0.0005.

Solved entries:
>  <seq>
ACCTGATC

>  <target or test system>
Sut1 (UniProt P53032)

>  <assigned class>
not satisfied

$$$$
>  <seq>
ACCCTGGG

>  <target or test system>
Sut1 (UniProt P53032)

>  <assigned class>
not satisfied

$$$$

Exercise: Is the recorded value of PBM E-score equal to or greater than 0.0005 for this sequence? ACCGGACG
Solution: satisfied

Exercise: Another sequence: CGGGCCCA
Solution: not satisfied

Exercise: And GCAGAATA ?
Solution: not satisfied

Attribution: the supplement of paper PMC3334620
